target: Potassium voltage-gated channel subfamily KQT member 1 (Homo sapiens); assay: KCNQ1 potassium channel potentiators, confirmation, FluxOR thallium flux, CHO cells, duplicates (AID 493007); settings: KCNQ1 cell line, FluxOR thallium flux fluorescence, at 10 µM, % of reference activator effect, buffer zero
The source made the active and inactive calls.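 The calls were made as follows: active = potentiation averaged over duplicate wells exceeding buffer-only control mean by more than 3 SD; inactive = the rest.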
Classes used: active, inactive

[
  {
    "molecule": "CCc1ccc(-c2c(C)sc(NC(C)=O)c2C(N)=O)cc1",
    "assigned-class": "inactive"
  },
  {
    "molecule": "Cc1cc(C)c2ccc(C)[n+]([O-])c2c1O",
    "assigned-class": "inactive"
  },
  {
    "molecule": "Cc1sc(NC(=O)CS(=O)(=O)c2ccccc2)c(C#N)c1C",
    "assigned-class": "inactive"
  },
  {
    "molecule": "O=c1[nH]c(C(Cl)(Cl)Cl)nc2ccc3ccccc3c12",
    "assigned-class": "active"
  },
  {
    "molecule": "CC1CCCCN1S(=O)(=O)c1ccc(S(=O)(=O)N(CC(=O)Nc2ccccc2)Cc2cccs2)cc1 (stereo unspecified)",
    "assigned-class": "inactive"
  },
  {
    "molecule": "CCN=C1SC(CC(=O)Nc2ccccc2OCC)C(=O)N1CC (stereo unspecified)",
    "assigned-class": "inactive"
  }
]
